Data provenance is patent US20210024646A1.

Below is a list of entries, each paired with its recorded pEC50 value.
Target: T1, CD73 on the surface of human tumor cells (human, UniProt P21589 27-549)
T1 chain: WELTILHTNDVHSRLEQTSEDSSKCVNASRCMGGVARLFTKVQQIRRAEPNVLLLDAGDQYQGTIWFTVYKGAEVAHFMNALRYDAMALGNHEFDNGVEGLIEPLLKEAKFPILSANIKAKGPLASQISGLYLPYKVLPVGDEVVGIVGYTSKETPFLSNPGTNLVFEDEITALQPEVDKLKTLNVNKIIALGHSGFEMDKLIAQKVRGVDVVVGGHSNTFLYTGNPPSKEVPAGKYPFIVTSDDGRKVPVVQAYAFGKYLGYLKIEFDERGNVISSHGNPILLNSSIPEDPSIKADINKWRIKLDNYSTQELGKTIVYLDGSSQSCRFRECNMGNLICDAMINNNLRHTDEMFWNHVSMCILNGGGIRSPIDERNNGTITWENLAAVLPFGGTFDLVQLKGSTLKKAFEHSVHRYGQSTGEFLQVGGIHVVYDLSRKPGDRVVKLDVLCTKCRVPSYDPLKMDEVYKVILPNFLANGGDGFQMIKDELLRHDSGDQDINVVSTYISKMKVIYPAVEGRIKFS
Experiment: FACS; NCI-H1299 cells, right table
Answer as the number alone; pEC50 is minus log10 of concentration in mol/L.

binder	value reported
Hu002c-12 (antibody, V domains shown) VH: QVQLVQSGAEVKKPGASVKVSCKASGYTLTSYWMHWVRQAPGQGLEWIGEINPSQGRSNYNEKFKSKVTLTVDRSTSTVYMELSSLRSEDTAVYYCARRGVSGNYFDYWGQGTLVTVSS VL: DIQMTQSPSSLSASVGDRVTITCKASQDINTYLSWFQQKPGKSPKSLIYRSNILVSGVPSRFSGSGSGQDYTLTISSLQPEDFAIYYCLQYDEFPYTFGGGTKLEI	9.09

Request: Would you mind telling me what pEC50 value was observed for mAb002c (antibody, V domains shown) VH: QVQLQQPGAELVKPGASVRLSCKASGYTLTSYWMHWVKKRPGQGLEWIGEINPSNGRSNYNEKFKSKATLTVDRSSSTVYMQLGSLTSEDSAVYYCARRGVSGNYFDYWGQGTTLTVSS VL: DIKMTQSPSSMYASLGERVTMTCKASQDINTYLSWFQQKPGKSPKTLIYRSNILVDGVPSRFSGSRSGQDYYLTITSLEYEDMGIYYCLQYDEFPYTFGGGTKLELK ?
Response: 9.28

Request: Would you mind telling me what pEC50 value was observed for Hu002c-11 (antibody, V domains shown) VH: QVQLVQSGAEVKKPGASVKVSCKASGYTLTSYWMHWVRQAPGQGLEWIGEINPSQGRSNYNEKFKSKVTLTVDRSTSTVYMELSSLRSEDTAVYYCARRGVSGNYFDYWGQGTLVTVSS VL: DIQMTQSPSSLSASVGDRVTITCKASQDINTYLSWFQQKPGKSPKSLIYRSNILVSGVPSRFSGSGSGQDYTLTISSLQPEDFATYYCLQYDEFPYTFGGGTKLEIK ?
Response: 9.11
